Tested on: 874868-142-R-J2-PDC complex spheroids, growth % test/control
ASSAY_SUMMARY: Anticancer human tumor 874868-142-R-J2-PDC patient-derived head and neck squamous carcinoma cell line growth inhibition [CLK]; active = viability on the fitted dose curve at most 10% of control; inactive = the rest
APPLIED_CONDITIONS: second compound 0.316 µM; first compound 0.3 µM
Outcome codes: t for active, f for inactive

COMPOUND	LABEL
NC(=O)C(=Cn1cnc(-c2cc(C(F)(F)F)cc(C(F)(F)F)c2)n1)c1cncnc1 + CNC(=O)c1ccc(Nc2nc(OC3CCCC3)c3c(-c4ccc5nc(C)oc5c4)c[nH]c3n2)c(OC)c1	t
C=CC(=O)Nc1cc(Nc2nccc(-c3cn(C)c4ccccc34)n2)c(OC)cc1N(C)CCN(C)C + CNC(=O)c1ccc(Nc2nc(OC3CCCC3)c3c(-c4ccc5nc(C)oc5c4)c[nH]c3n2)c(OC)c1	f
C=CC(=O)Nc1cc(Nc2nccc(-c3cn(C)c4ccccc34)n2)c(OC)cc1N(C)CCN(C)C + CN1CCN(c2cc(C(=O)Nc3cc4cc(-c5cnn(C)c5)ccc4cn3)ccn2)CC1	t
NC(=O)C(=Cn1cnc(-c2cc(C(F)(F)F)cc(C(F)(F)F)c2)n1)c1cncnc1 + CN1CCN(c2cc(C(=O)Nc3cc4cc(-c5cnn(C)c5)ccc4cn3)ccn2)CC1	t
CC(C)CC(NC(=O)C(Cc1ccccc1)NC(=O)c1cnccn1)B(O)O (stereo unspecified) + CNC(=O)c1ccc(Nc2nc(OC3CCCC3)c3c(-c4ccc5nc(C)oc5c4)c[nH]c3n2)c(OC)c1	t
CC(C)CC(NC(=O)C(Cc1ccccc1)NC(=O)c1cnccn1)B(O)O (stereo unspecified) + CN1CCN(c2cc(C(=O)Nc3cc4cc(-c5cnn(C)c5)ccc4cn3)ccn2)CC1	t

###

System: 874868-142-R-J2-PDC complex spheroids, growth % test/control
ASSAY_SUMMARY: Anticancer human tumor 874868-142-R-J2-PDC cell line growth inhibition [CLK];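 note: spheroids exposed to the compounds for 7 days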;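 for viability, T/C: 100% = DMSO vehicle control viability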
APPLIED_CONDITIONS: second compound 0.0316 µM; first compound 0.1 µM; stronger effect = lower value
Consider the cut-off 90%. If the recorded viability, T/C is strictly smaller, the label is Condition met; if not, the label is Condition not met.

COMPOUND	TESTED_SYSTEM	LABEL
C#Cc1c(F)ccc2cc(O)cc(-c3ncc4c(N5CC6CCC(C5)N6)nc(OCC56CCCN5CC(F)C6)nc4c3F)c12 (stereo not given) + CN1CCN(c2cc(C(=O)Nc3cc4cc(-c5cnn(C)c5)ccc4cn3)ccn2)CC1	874868-142-R-J2-PDC complex spheroids, growth % test/control	Condition met
C=CC(=O)N1CCN(c2nc(=O)n(-c3c(C)ccnc3C(C)C)c3nc(-c4c(O)cccc4F)c(F)cc23)C(C)C1 (stereo not given) + CNC(=O)c1ccc(Nc2nc(OC3CCCC3)c3c(-c4ccc5nc(C)oc5c4)c[nH]c3n2)c(OC)c1	874868-142-R-J2-PDC complex spheroids, growth % test/control	Condition met
CCCS(=O)(=O)Nc1ccc(F)c(C(=O)c2c[nH]c3ncc(-c4ccc(Cl)cc4)cc23)c1F + CNC(=O)c1ccc(Nc2nc(OC3CCCC3)c3c(-c4ccc5nc(C)oc5c4)c[nH]c3n2)c(OC)c1	874868-142-R-J2-PDC complex spheroids, growth % test/control	Condition not met
Nc1ccn(C2OC(CO)C(O)C2(F)F)c(=O)n1 (stereo not given) + CN1CCN(c2cc(C(=O)Nc3cc4cc(-c5cnn(C)c5)ccc4cn3)ccn2)CC1	874868-142-R-J2-PDC complex spheroids, growth % test/control	Condition met
CCN1CCN(Cc2ccc(Nc3ncc(F)c(-c4cc(F)c5nc(C)n(C(C)C)c5c4)n3)nc2)CC1 + CNC(=O)c1ccc(Nc2nc(OC3CCCC3)c3c(-c4ccc5nc(C)oc5c4)c[nH]c3n2)c(OC)c1	874868-142-R-J2-PDC complex spheroids, growth % test/control	Condition not met
Cn1ncnc1[C@H]1c2n[nH]c(=O)c3cc(F)cc(c23)N[C@@H]1c1ccc(F)cc1 + CNC(=O)c1ccc(Nc2nc(OC3CCCC3)c3c(-c4ccc5nc(C)oc5c4)c[nH]c3n2)c(OC)c1	874868-142-R-J2-PDC complex spheroids, growth % test/control	Condition met
C=C(F)C(=O)N1CCN(c2nc(OCC3CCCN3C)nc3c2CCN(c2cccc4cccc(Cl)c24)C3)CC1CC#N (stereo not given) + CNC(=O)c1ccc(Nc2nc(OC3CCCC3)c3c(-c4ccc5nc(C)oc5c4)c[nH]c3n2)c(OC)c1	874868-142-R-J2-PDC complex spheroids, growth % test/control	Condition met
Cn1ncnc1[C@H]1c2n[nH]c(=O)c3cc(F)cc(c23)N[C@@H]1c1ccc(F)cc1 + CN1CCN(c2cc(C(=O)Nc3cc4cc(-c5cnn(C)c5)ccc4cn3)ccn2)CC1	874868-142-R-J2-PDC complex spheroids, growth % test/control	Condition met
CCc1c2c(nc3ccc(O)cc13)-c1cc3c(c(=O)n1C2)COC(=O)[C@]3(O)CC + CN1CCN(c2cc(C(=O)Nc3cc4cc(-c5cnn(C)c5)ccc4cn3)ccn2)CC1	874868-142-R-J2-PDC complex spheroids, growth % test/control	Condition met
C=CC(=O)N1CCN(c2nc(=O)n(-c3c(C)ccnc3C(C)C)c3nc(-c4c(O)cccc4F)c(F)cc23)C(C)C1 (stereo not given) + CN1CCN(c2cc(C(=O)Nc3cc4cc(-c5cnn(C)c5)ccc4cn3)ccn2)CC1	874868-142-R-J2-PDC complex spheroids, growth % test/control	Condition not met

###

# viability, T/C values compiled below
Tested on: 874868-142-R-J2-PDC complex spheroids, growth % test/control
ASSAY_SUMMARY: Anticancer human tumor 874868-142-R-J2-PDC cell line growth inhibition [CLK];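 note: spheroids exposed to the compounds for 7 days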;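 for viability, T/C: 100% = DMSO vehicle control viability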
APPLIED_CONDITIONS: second compound 0.0316 µM; first compound 0.003 µM; stronger effect = lower value
QUANTITY_NAME: viability, T/C (%)

MOLECULE	TESTED_SYSTEM	DISPLAY_UNIT	QUANTITATIVE_RESULT
CC(C)CC(NC(=O)C(Cc1ccccc1)NC(=O)c1cnccn1)B(O)O (centres undefined) + CNC(=O)c1ccc(Nc2nc(OC3CCCC3)c3c(-c4ccc5nc(C)oc5c4)c[nH]c3n2)c(OC)c1	874868-142-R-J2-PDC complex spheroids, growth % test/control	%	76.4
C=CC(=O)Nc1cc(Nc2nccc(-c3cn(C)c4ccccc34)n2)c(OC)cc1N(C)CCN(C)C + CN1CCN(c2cc(C(=O)Nc3cc4cc(-c5cnn(C)c5)ccc4cn3)ccn2)CC1	874868-142-R-J2-PDC complex spheroids, growth % test/control	%	90.5
C=CC(=O)Nc1cc(Nc2nccc(-c3cn(C)c4ccccc34)n2)c(OC)cc1N(C)CCN(C)C + CNC(=O)c1ccc(Nc2nc(OC3CCCC3)c3c(-c4ccc5nc(C)oc5c4)c[nH]c3n2)c(OC)c1	874868-142-R-J2-PDC complex spheroids, growth % test/control	%	115
CC(C)CC(NC(=O)C(Cc1ccccc1)NC(=O)c1cnccn1)B(O)O (centres undefined) + CN1CCN(c2cc(C(=O)Nc3cc4cc(-c5cnn(C)c5)ccc4cn3)ccn2)CC1	874868-142-R-J2-PDC complex spheroids, growth % test/control	%	91.5

###

Tested on: 874868-142-R-J2-PDC complex spheroids, growth % test/control
ASSAY_SUMMARY: Anticancer human tumor 874868-142-R-J2-PDC cell line growth inhibition [CLK];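 note: spheroids exposed to the compounds for 7 days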
APPLIED_CONDITIONS: curve of first compound; second compound 10 µM
pIC50: −log10 of the molar value.
QUANTITY_NAME: pIC50

COMPOUND	RESULT
CC(Nc1ccc2c(c1)OCCn1cc(N3C(=O)OCC3C(F)F)nc1-2)C(N)=O (stereo not drawn) + CN1CCN(c2cc(C(=O)Nc3cc4cc(-c5cnn(C)c5)ccc4cn3)ccn2)CC1	> 7.50
CCc1c2c(nc3ccc(O)cc13)-c1cc3c(c(=O)n1C2)COC(=O)[C@]3(O)CC + CNC(=O)c1ccc(Nc2nc(OC3CCCC3)c3c(-c4ccc5nc(C)oc5c4)c[nH]c3n2)c(OC)c1	> 8.50
CCN1CCN(Cc2ccc(Nc3ncc(F)c(-c4cc(F)c5nc(C)n(C(C)C)c5c4)n3)nc2)CC1 + CN1CCN(c2cc(C(=O)Nc3cc4cc(-c5cnn(C)c5)ccc4cn3)ccn2)CC1	> 8.50

###

System: 874868-142-R-J2-PDC complex spheroids, growth % test/control
ASSAY_SUMMARY: Anticancer human tumor 874868-142-R-J2-PDC cell line growth inhibition [CLK];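 note: spheroids exposed to the compounds for 7 days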;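 for viability, T/C: 100% = DMSO vehicle control viability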
APPLIED_CONDITIONS: second compound 0.0316 µM; first compound 0.00949 µM; stronger effect = lower value
# viability, T/C values compiled below
QUANTITY_NAME: viability, T/C (%)

COMPOUND	QUANTITATIVE_RESULT
CC(C)CC(NC(=O)C(Cc1ccccc1)NC(=O)c1cnccn1)B(O)O (stereo unspecified) + CN1CCN(c2cc(C(=O)Nc3cc4cc(-c5cnn(C)c5)ccc4cn3)ccn2)CC1	1.41
NC(=O)C(=Cn1cnc(-c2cc(C(F)(F)F)cc(C(F)(F)F)c2)n1)c1cncnc1 + CN1CCN(c2cc(C(=O)Nc3cc4cc(-c5cnn(C)c5)ccc4cn3)ccn2)CC1	69.8
CC(C)CC(NC(=O)C(Cc1ccccc1)NC(=O)c1cnccn1)B(O)O (stereo unspecified) + CNC(=O)c1ccc(Nc2nc(OC3CCCC3)c3c(-c4ccc5nc(C)oc5c4)c[nH]c3n2)c(OC)c1	0.57
NC(=O)C(=Cn1cnc(-c2cc(C(F)(F)F)cc(C(F)(F)F)c2)n1)c1cncnc1 + CNC(=O)c1ccc(Nc2nc(OC3CCCC3)c3c(-c4ccc5nc(C)oc5c4)c[nH]c3n2)c(OC)c1	70.8
C=CC(=O)Nc1cc(Nc2nccc(-c3cn(C)c4ccccc34)n2)c(OC)cc1N(C)CCN(C)C + CNC(=O)c1ccc(Nc2nc(OC3CCCC3)c3c(-c4ccc5nc(C)oc5c4)c[nH]c3n2)c(OC)c1	77.4
C=CC(=O)Nc1cc(Nc2nccc(-c3cn(C)c4ccccc34)n2)c(OC)cc1N(C)CCN(C)C + CN1CCN(c2cc(C(=O)Nc3cc4cc(-c5cnn(C)c5)ccc4cn3)ccn2)CC1	80.3

Ref: PubChem BioAssay AID2060601
